Source: the supplement of paper PMC10567573

B1: KLHL12 (parent)
chain: LDYTADEDGVWYSVAPMNVRRGLA

- Variants of: B1
- test summary: protein stability index of a GFP-peptide fusion (GPS, HEK-293T) (PSI 1-6); higher = more stable;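 note: lentivirally expressed fusions sorted by FACS into six bins by GFP to DsRed ratio, PSI derived from sequencing read proportions per bin multiplied by bin number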
- test parameters: c terminus: a fixed tail appended
Task for the reader: assign each of the following variants its reported protein stability index.
Format: numeric value only, no unit, no commentary.

**Query** Requested field: protein stability index. Item: LDYTADEDGVWYHVAPMNVRRGLA [S13H]
**Result** 3.65

**Query** Requested field: protein stability index. Item: LDYTADEDGVWYSVAPMFVRRGLA [N18F]
**Result** 2.19

**Query** Requested field: protein stability index. Item: LDYTAFEDGVWYSVAPMNVRRGLA [D6F]
**Result** 2.98

**Query** Requested field: protein stability index. Item: LDYTADEDGVWYSVAPDNVRRGLA [M17D]
**Result** 2.47

**Query** Requested field: protein stability index. Item: LDYTADEDGVWYSVAPVNVRRGLA [M17V]
**Result** 2.59

**Query** Requested field: protein stability index. Item: LDYTADEDGVWYSVAPMNVRRELA [G22E]
**Result** 2.17

**Query** Requested field: protein stability index. Item: LIYTADEDGVWYSVAPMNVRRGLA [D2I]
**Result** 1.37

**Query** Requested field: protein stability index. Item: LDYTADEDGVWYSVEPMNVRRGLA [A15E]
**Result** 2.29

**Query** Requested field: protein stability index. Item: LDYTADEDGVWYSVAPMNVVRGLA [R20V]
**Result** 2.49

**Query** Requested field: protein stability index. Item: LDYTADEDGVWYSVVPMNVRRGLA [A15V]
**Result** 1.76

**Query** Requested field: protein stability index. Item: LDYTQDEDGVWYSVAPMNVRRGLA [A5Q]
**Result** 2.06

**Query** Requested field: protein stability index. Item: LDYTADEDGVWYSVAPMNVRRGLQ [A24Q]
**Result** 2.03

**Query** Requested field: protein stability index. Item: LDYTADEDGVWYSVAPMNIRRGLA [V19I]
**Result** 2.42

**Query** Requested field: protein stability index. Item: LDYTAGEDGVWYSVAPMNVRRGLA [D6G]
**Result** 2.36

**Query** Requested field: protein stability index. Item: LDYEADEDGVWYSVAPMNVRRGLA [T4E]
**Result** 2.69

**Query** Requested field: protein stability index. Item: LDYTADEDGVWYSVAPMNVRRGLL [A24L]
**Result** 2.77

**Query** Requested field: protein stability index. Item: LDYTADEDGVWYSVAPMNVRGGLA [R21G]
**Result** 1.78

**Query** Requested field: protein stability index. Item: TDYTADEDGVWYSVAPMNVRRGLA [L1T]
**Result** 3.18

**Query** Requested field: protein stability index. Item: LDYTADEDGVWYSKAPMNVRRGLA [V14K]
**Result** 4.17

**Query** Requested field: protein stability index. Item: LDYTADEDGVWYSVAPMNVCRGLA [R20C]
**Result** 1.54

**Query** Requested field: protein stability index. Item: LDYVADEDGVWYSVAPMNVRRGLA [T4V]
**Result** 1.98

**Query** Requested field: protein stability index. Item: WDYTADEDGVWYSVAPMNVRRGLA [L1W]
**Result** 2.53

**Query** Requested field: protein stability index. Item: LDYTADEDPVWYSVAPMNVRRGLA [G9P]
**Result** 2.75

**Query** Requested field: protein stability index. Item: LDYTTDEDGVWYSVAPMNVRRGLA [A5T]
**Result** 1.94

**Query** Requested field: protein stability index. Item: LDYTADEDGVWYSVAPMNVRRGLM [A24M]
**Result** 1.75
